- MEASUREMENT_TARGET: Receptor tyrosine-protein kinase erbB-2 (Homo sapiens, UniProt P04626)
- Sequence (P04626 whole entry): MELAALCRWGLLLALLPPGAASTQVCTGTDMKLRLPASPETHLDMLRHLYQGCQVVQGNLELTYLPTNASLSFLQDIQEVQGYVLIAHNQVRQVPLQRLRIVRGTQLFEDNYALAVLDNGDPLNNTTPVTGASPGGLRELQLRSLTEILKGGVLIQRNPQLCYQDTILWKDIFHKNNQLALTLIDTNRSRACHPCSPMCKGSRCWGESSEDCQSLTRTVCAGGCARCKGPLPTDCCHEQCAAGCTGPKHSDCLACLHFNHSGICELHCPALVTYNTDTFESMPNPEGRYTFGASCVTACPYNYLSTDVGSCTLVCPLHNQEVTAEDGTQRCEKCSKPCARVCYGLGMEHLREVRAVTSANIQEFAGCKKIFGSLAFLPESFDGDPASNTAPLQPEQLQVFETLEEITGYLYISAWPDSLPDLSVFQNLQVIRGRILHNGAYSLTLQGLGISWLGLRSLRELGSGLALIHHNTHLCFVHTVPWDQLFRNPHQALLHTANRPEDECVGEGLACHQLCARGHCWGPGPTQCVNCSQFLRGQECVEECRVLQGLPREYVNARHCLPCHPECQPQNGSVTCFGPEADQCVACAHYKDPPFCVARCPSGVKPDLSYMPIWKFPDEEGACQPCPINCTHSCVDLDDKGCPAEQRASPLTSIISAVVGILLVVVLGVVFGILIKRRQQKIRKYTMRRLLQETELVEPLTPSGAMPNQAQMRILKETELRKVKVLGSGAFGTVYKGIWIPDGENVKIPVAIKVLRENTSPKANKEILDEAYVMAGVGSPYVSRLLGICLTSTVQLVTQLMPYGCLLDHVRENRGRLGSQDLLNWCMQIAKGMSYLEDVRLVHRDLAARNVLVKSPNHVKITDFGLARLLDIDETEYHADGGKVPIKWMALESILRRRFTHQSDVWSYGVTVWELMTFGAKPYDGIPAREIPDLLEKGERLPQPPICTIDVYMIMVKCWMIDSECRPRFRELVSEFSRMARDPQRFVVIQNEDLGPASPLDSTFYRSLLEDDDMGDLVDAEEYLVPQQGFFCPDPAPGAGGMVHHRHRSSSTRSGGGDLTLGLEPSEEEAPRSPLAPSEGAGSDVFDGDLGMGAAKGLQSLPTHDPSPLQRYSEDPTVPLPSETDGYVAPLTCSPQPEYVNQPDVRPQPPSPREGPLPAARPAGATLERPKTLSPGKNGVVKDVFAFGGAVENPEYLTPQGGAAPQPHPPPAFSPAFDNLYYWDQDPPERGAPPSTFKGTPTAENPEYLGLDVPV
- ASSAY_NOTES: Kinetic constant for peptide inhibitor binding to HER2 receptor
Positions of bridges follow the written chain, without caps; N, C: chain ends. Residues, ends and D or L forms follow the SMILES beside them.
OUTCOME_MEASURE: k on (M⁻¹ s⁻¹)
Numbers only, in M⁻¹ s⁻¹.

Sample answers from the record:
CSCC[C@H](NC(=O)[C@H](Cc1ccc(O)cc1)NC(=O)[C@@H]1CSSC[C@H](NC(=O)[C@@H](N)Cc2ccccc2)C(=O)N[C@@H](CC(=O)O)C(=O)NCC(=O)N[C@@H](Cc2ccccc2)C(=O)N[C@@H](Cc2ccc(O)cc2)C(=O)N[C@@H](C)C(=O)N1)C(=O)N[C@@H](CC(=O)O)C(=O)N[C@H](C(=O)O)C(C)C (stereo in doubt; 2) : 990
CSCC[C@H](NC(=O)[C@H](Cc1ccc(O)cc1)NC(=O)[C@@H]1CSSC[C@H](NC(=O)[C@@H](N)Cc2ccccc2)C(=O)N[C@@H](CC(=O)O)C(=O)NCC(=O)N[C@@H](Cc2ccccc2)C(=O)N[C@@H](Cc2ccc(O)cc2)C(=O)N[C@@H](C)C(=O)N1)C(=O)N[C@@H](CC(=O)O)C(=O)N[C@H](C(=O)N[C@@H](CCCCN)C(N)=O)C(C)C (H-FCDGFYACYMDVK-NH2; disulfide 2-8) : 617

Query string: Given CSCC[C@H](NC(=O)[C@H](Cc1ccc(O)cc1)NC(=O)[C@@H]1CSSC[C@H](NC(=O)[C@@H](N)Cc2ccccc2)C(=O)N[C@@H](CC(=O)O)C(=O)NCC(=O)N[C@@H](Cc2ccccc2)C(=O)N[C@@H](Cc2ccc(O)cc2)C(=O)N[C@@H](C)C(=O)N1)C(=O)N[C@@H](CC(=O)O)C(=O)N[C@H](C(=O)O)C(C)C (stereo in doubt; 9) , state its recorded k on.
Result string: 298

----------
- ASSAY_NOTES: Solubility in the PBS buffer at 1 mg/mL; Limited solubility
- Assay type: physicochemical
Positions of bridges follow the written chain, without caps; N, C: chain ends. Residues, ends and D or L forms follow the SMILES beside them.
OUTCOME_MEASURE: S

CSCC[C@H](NC(=O)[C@H](Cc1ccc(O)cc1)NC(=O)[C@@H]1CSSC[C@H](NC(=O)[C@@H](N)Cc2ccccc2)C(=O)N[C@@H](CC(=O)O)C(=O)NCC(=O)N[C@@H](Cc2ccccc2)C(=O)N[C@@H](Cc2ccc(O)cc2)C(=O)N[C@@H](C)C(=O)N1)C(=O)N[C@@H](CC(=O)O)C(=O)N[C@H](C(N)=O)C(C)C : Insoluble
CSCC[C@H](NC(=O)[C@H](Cc1ccc(O)cc1)NC(=O)[C@@H]1CSSC[C@H](NC(=O)[C@@H](N)Cc2ccccc2)C(=O)N[C@@H](CC(=O)O)C(=O)NCC(=O)N[C@@H](Cc2ccccc2)C(=O)N[C@@H](Cc2ccc(O)cc2)C(=O)N[C@@H](C)C(=O)N1)C(=O)N[C@@H](CC(=O)O)C(=O)N[C@H](C(=O)N[C@@H](CCCCN)C(N)=O)C(C)C (H-FCDGFYACYMDVK-NH2; disulfide 2-8) : Insoluble
CSCC[C@H](NC(=O)[C@H](Cc1ccc(O)cc1)NC(=O)[C@@H]1CSSC[C@H](NC(=O)[C@@H](N)Cc2ccccc2)C(=O)N[C@@H](CC(=O)O)C(=O)NCC(=O)N[C@@H](Cc2ccccc2)C(=O)N[C@@H](Cc2ccc(O)cc2)C(=O)N[C@@H](C)C(=O)N1)C(=O)N[C@@H](CC(=O)O)C(=O)N[C@H](C(=O)O)C(C)C (stereo in doubt; 2) : Insoluble
CSCC[C@H](NC(=O)[C@H](Cc1ccc(O)cc1)NC(=O)[C@@H]1CSSC[C@H](NC(=O)[C@@H](N)Cc2ccc(O)cc2)C(=O)N[C@@H](CC(=O)O)C(=O)NCC(=O)N[C@@H](Cc2ccccc2)C(=O)N[C@@H](Cc2ccc(O)cc2)C(=O)N[C@@H](C)C(=O)N1)C(=O)N[C@@H](CC(=O)O)C(=O)N[C@H](C(N)=O)C(C)C : Insoluble
